Listed next: entries and their corresponding pIC50.
Molecular target: 20S proteasome extracted from rat liver, peptidyl-glutamyl-peptide-hydrolyzing (PGPH) enzyme activity (Rattus norvegicus, UniProt P28073+Q9JHW0)
Construct: 20S proteasome extracted from rat liver
Assay: Proteasome inhibition, PGPH activity, fluorescent peptide Z-leu-leu-Glu-βNA
Conditions: rat liver 20S proteasome, 37° C., 1 h
pIC50: −log10 of the molar value.
quantity-kind: pIC50

compound="CC(C)C[C@H](NC(=O)[C@H](Cc1ccc(O)cc1)NC(=O)[C@H](Cc1ccccc1)NC(=O)c1cnccn1)B(O)O [Compound 6c]" value_observed=8.40
compound="CC(C)C[C@H](NC(=O)[C@H](CC(C)C)NC(=O)[C@H](CC(C)C)NC(=O)c1cnccn1)B(O)O [Compound 6l]" value_observed="< 7.70"
compound="CC(C)C[C@H](NC(=O)[C@H](Cc1ccc2ccccc2c1)NC(=O)[C@H](CC(C)C)NC(=O)c1cnccn1)B1OC2CC3C[C@@H](C3(C)C)[C@]2(C)O1 (stereo partly drawn) [Compound 5f]" value_observed=8.41
compound="CC(C)C[C@H](NC(=O)[C@H](Cc1ccccc1)NC(=O)[C@H](Cc1c[nH]c2ccccc12)NC(=O)c1cnccn1)B(O)O [Compound 6i]" value_observed="< 7.70"
compound="CC(C)C[C@H](NC(=O)[C@H](Cc1c[nH]c2ccccc12)NC(=O)[C@H](Cc1ccccc1)NC(=O)c1cnccn1)B(O)O [Compound 6j]" value_observed="< 7.70"
compound="CC(C)C[C@H](NC(=O)[C@H](Cc1ccccc1)NC(=O)[C@H](Cc1ccc2ccccc2c1)NC(=O)c1cnccn1)B1OC2CC3C[C@@H](C3(C)C)[C@]2(C)O1 (stereo partly drawn) [Compound 5b]" value_observed="< 7.70"
